# assay-method-text: Plasma pharmacokinetics, part 1 (healthy subjects)
# Type: in vivo, human
# recorded-conditions: human, inhaled or intranasal, single inhaled 1.5 mg, mean±SD, read-out: Cmax

- compound: "OC[C@H]1O[C@@H](S[C@@H]2O[C@H](CO)[C@H](O)[C@H](n3cc(-c4cccc(F)c4)nn3)[C@H]2O)[C@H](O)[C@@H](n2cc(-c3cccc(F)c3)nn2)[C@H]1O [TD139]"
  quantity-unit: "ng/mL"
  Cmax: 2.37

* * *

# assay-method-text: Plasma pharmacokinetics, part 2 (IPF patients)
# Format: in vivo, human
# recorded-conditions: human, plasma, inhaled, 10 mg, IPF patients; plasma; Day 1; 10 mg once daily; mean±SD

- input-smiles: "OC[C@H]1O[C@@H](S[C@@H]2O[C@H](CO)[C@H](O)[C@H](n3cc(-c4cccc(F)c4)nn3)[C@H]2O)[C@H](O)[C@@H](n2cc(-c3cccc(F)c3)nn2)[C@H]1O"
  AUC(0-inf) (ng·h/mL): 921

* * *

# assay-method-text: Plasma pharmacokinetics, part 2 (IPF patients)
# Format: in vivo, human
# recorded-conditions: human, plasma, inhaled, 10 mg, IPF patients; plasma; Day 1; 10 mg once daily; mean±SD
property-name: Cmax (ng/mL)

- molecule: "OC[C@H]1O[C@@H](S[C@@H]2O[C@H](CO)[C@H](O)[C@H](n3cc(-c4cccc(F)c4)nn3)[C@H]2O)[C@H](O)[C@@H](n2cc(-c3cccc(F)c3)nn2)[C@H]1O [TD139]"
  reported: 56.3

* * *

# assay-method-text: Plasma pharmacokinetics, part 1 (healthy subjects)
# Assay type: in vivo, human
# recorded-conditions: human, inhaled or intranasal, single inhaled 1.5 mg, mean±SD

- input-smiles: "OC[C@H]1O[C@@H](S[C@@H]2O[C@H](CO)[C@H](O)[C@H](n3cc(-c4cccc(F)c4)nn3)[C@H]2O)[C@H](O)[C@@H](n2cc(-c3cccc(F)c3)nn2)[C@H]1O"
  AUC(0-inf), ng·h/mL: 17.9

* * *

# assay-method-text: Plasma pharmacokinetics, part 2 (IPF patients)
# Assay type: in vivo, human
# recorded-conditions: human, plasma, inhaled, 3 mg, IPF patients; Day 14; 3 mg once daily; mean±SD; read-out: Cmin (plasma concentration at 24 h post-dose)

- compound: "OC[C@H]1O[C@@H](S[C@@H]2O[C@H](CO)[C@H](O)[C@H](n3cc(-c4cccc(F)c4)nn3)[C@H]2O)[C@H](O)[C@@H](n2cc(-c3cccc(F)c3)nn2)[C@H]1O [TD139]"
  quantity-unit: "ng/mL"
  concentration at 24 h: 1.48

* * *

# assay-method-text: Plasma pharmacokinetics, part 2 (IPF patients)
# Type: in vivo, human
# recorded-conditions: human, plasma, inhaled, 10 mg, IPF patients; plasma; Day 14; 10 mg once daily; mean±SD
# Description: Full plasma PK profiles were conducted on days 1 (first day of dosing) and 14 (last day of dosing). […] Standard noncompartmental methods were applied to derive PK parameters using Phoenix WinNonlin version 6.3 (Certara, Sheffield, UK). […] Drug compartment measurements in BAL alveolar macrophages and fluid were determined as described previously.

- input-smiles: "OC[C@H]1O[C@@H](S[C@@H]2O[C@H](CO)[C@H](O)[C@H](n3cc(-c4cccc(F)c4)nn3)[C@H]2O)[C@H](O)[C@@H](n2cc(-c3cccc(F)c3)nn2)[C@H]1O"
  Cmax / ng/mL: 82.8
